Measured On: human serum albumin (HSA) (Homo sapiens, UniProt P02768)
Sequence (P02768 25-609): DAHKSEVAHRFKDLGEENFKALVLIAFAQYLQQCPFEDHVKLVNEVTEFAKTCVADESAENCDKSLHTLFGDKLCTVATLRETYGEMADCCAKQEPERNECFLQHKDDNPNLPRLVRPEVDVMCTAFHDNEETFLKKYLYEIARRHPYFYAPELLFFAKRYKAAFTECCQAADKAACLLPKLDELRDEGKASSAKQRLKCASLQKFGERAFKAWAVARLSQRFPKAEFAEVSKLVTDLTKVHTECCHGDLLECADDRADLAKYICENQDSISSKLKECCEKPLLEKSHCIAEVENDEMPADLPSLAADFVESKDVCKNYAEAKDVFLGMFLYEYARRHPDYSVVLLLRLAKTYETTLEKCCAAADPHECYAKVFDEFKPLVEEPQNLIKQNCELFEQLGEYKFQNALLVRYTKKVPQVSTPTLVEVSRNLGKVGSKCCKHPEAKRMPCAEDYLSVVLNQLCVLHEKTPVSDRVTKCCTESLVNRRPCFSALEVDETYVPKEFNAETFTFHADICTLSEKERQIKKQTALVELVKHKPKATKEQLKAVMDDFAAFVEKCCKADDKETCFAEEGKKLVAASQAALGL
Measurement Protocol: fluorescence turn-on titration with HSA (one-site fit), Job's plot […], displacement assay
Measure Name: Kd (µM)
Kindly provide the numeric value in µM only, without the unit symbol.

What measured Kd is associated with CN(C)c1ccc(/C=C/C=C/C=C(\C#N)C(=O)c2cccc(Cl)c2)s1 on human serum albumin (HSA) (Homo sapiens, UniProt P02768)? 15.4
